Where do these numbers come from? They come from the supplement of paper PMC9170038.

Tested on: MS2 coat protein
procedure summary: apparent KD of MS2 coat protein; designed switch direction (-1 OFF switch, 1 ON switch): 1; higher = weaker reporter binding
assay conditions: input ligand: FMN 200 uM
outcome measure: apparent KD of MS2 coat protein (nM)
Give bare numbers, in nM.

Example entries begin here.
{"record sequence": "AUUAUUAAUGCAGGAUAUGAUUAACAUGAGGAUCACCCAUGUGGUGUUGUGAGUAAGGAGAGUGAUCAGAAGGGCAUAUUUUUU [JMF's solution 9] (Eterna round: R96, puzzle: Same State NG 2)", "unit tag": "nM", "apparent KD of MS2 coat protein": 668}
{"record sequence": "AGUCCAGCCUGAGCUGGACAAAAGCAUGUACAUGAGGAUCACCCAUGUCAUGUACAAGCUUUUUGCUCAUCUUAAAA [Mat - hsa-mir-208a - Mod of JL - D11] (Eterna round: R96, puzzle: Sensor for hsa-mir-208a)", "unit tag": "nM", "apparent KD of MS2 coat protein": 750}

Let us examine a further case.
query: Output measured apparent KD of MS2 coat protein for this item: UUAAUUAUGUAAGGAUAUACAUGAGGAUUUCUCGUAGAAGGUACAUUACAUGAGGAUCACCCAUGUGGGUGUCAGAAGACGCCA [Mat - Same State NG 1 - JL mod - D12] (Eterna round: R96, puzzle: Same State NG 1)
result: 269
